Target: talin H1-H4 (Homo sapiens, UniProt Q9Y490)
Sequence (Q9Y490 482-636): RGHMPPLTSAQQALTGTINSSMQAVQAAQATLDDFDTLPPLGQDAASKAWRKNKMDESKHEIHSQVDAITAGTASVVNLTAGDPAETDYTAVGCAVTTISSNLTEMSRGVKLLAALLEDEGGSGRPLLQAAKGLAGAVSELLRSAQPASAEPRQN
Experiment: Isothermal titration calorimetry
Assay type: binding
Method: Vinculin, IpaA proteins and peptides were extensively dialyzed in binding buffer (25 mM Tris pH 7.4, 100 mM NaCl and 1 mM β-Mercaptoethanol). The final concentration of all proteins/peptides was measured using a BCA test (Thermo Scientific). Talin-IpaA binding was measured by microcalorimetry using an ITC200 calorimeter (MicroCal) at 25° C. […] Binding to talin H1-H4 (100 μM) was measured. […] Data were analyzed using the MicroCal software provided by manufacturer.
No end group written: not given here.
ASSAY METRIC: Kd (nM)
Form entry: value (nM) — number only.

q: For YTKKELIECARRVSEKVSHVLAALQA [talin H46, reference compound] , what is its reported Kd?
a: 60
